# study_target: Histone deacetylase 3 (Homo sapiens)
# Sequence (O15379 whole entry): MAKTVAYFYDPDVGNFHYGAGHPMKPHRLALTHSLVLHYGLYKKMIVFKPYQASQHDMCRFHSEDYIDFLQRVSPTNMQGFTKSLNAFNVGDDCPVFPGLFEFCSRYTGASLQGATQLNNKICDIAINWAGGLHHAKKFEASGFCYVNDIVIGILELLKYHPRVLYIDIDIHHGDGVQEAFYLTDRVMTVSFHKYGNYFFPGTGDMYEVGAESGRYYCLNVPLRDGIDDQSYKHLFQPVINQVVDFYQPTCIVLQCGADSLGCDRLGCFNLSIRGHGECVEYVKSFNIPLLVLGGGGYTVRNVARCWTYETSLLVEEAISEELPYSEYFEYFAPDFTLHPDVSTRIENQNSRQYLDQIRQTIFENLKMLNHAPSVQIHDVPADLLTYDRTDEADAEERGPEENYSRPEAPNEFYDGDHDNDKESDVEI
# experiment_summary: Inhibition of recombinant human HDAC3 using fluorogenic HDAC substrate after 30 mins by fluorescence analysis
pIC50: −log10 of the molar value.
Overview of reported pIC50 across a group of compounds:

[
  {
    "smiles_text": "O=C(CCCCCCn1[se]c2ccccc2c1=O)NO",
    "pIC50": 6.79
  },
  {
    "smiles_text": "O=C(NO)c1ccc(Cn2[se]c3ccccc3c2=O)cc1",
    "pIC50": 5.89
  }
]

###

# Tested on: PC-12
# experiment_summary: Neuroprotective activity against 6-OHDA-induced toxicity in rat PC12 cells assessed as increase in cell viability at 5 uM pretreated for 24 hrs followed by 6-OHDA challenge and measured after 12 hrs by MTT assay
# Format: functional, cell-based
The source made the active and inactive calls. The rule behind the calls is not given here.

[
  {
    "smiles_text": "O=C(NO)c1ccc(Cn2[se]c3ccc(O)cc3c2=O)cc1",
    "study_target": "PC-12",
    "Activity": "Active"
  },
  {
    "smiles_text": "O=C(NO)c1ccc(Cn2[se]c3ccccc3c2=O)cc1",
    "study_target": "PC-12",
    "Activity": "Active"
  },
  {
    "smiles_text": "O=c1c2ccccc2[se]n1-c1ccccc1",
    "study_target": "PC-12",
    "Activity": "Active"
  },
  {
    "smiles_text": "CN1CCc2c(c3ccccc3n2Cc2ccc(C(=O)NO)cc2)C1",
    "study_target": "PC-12",
    "Activity": "Active"
  }
]
